# assayed.target: PKN1 (human) (UniProt Q16512)
# Sequence (Q16512 whole entry, looked up): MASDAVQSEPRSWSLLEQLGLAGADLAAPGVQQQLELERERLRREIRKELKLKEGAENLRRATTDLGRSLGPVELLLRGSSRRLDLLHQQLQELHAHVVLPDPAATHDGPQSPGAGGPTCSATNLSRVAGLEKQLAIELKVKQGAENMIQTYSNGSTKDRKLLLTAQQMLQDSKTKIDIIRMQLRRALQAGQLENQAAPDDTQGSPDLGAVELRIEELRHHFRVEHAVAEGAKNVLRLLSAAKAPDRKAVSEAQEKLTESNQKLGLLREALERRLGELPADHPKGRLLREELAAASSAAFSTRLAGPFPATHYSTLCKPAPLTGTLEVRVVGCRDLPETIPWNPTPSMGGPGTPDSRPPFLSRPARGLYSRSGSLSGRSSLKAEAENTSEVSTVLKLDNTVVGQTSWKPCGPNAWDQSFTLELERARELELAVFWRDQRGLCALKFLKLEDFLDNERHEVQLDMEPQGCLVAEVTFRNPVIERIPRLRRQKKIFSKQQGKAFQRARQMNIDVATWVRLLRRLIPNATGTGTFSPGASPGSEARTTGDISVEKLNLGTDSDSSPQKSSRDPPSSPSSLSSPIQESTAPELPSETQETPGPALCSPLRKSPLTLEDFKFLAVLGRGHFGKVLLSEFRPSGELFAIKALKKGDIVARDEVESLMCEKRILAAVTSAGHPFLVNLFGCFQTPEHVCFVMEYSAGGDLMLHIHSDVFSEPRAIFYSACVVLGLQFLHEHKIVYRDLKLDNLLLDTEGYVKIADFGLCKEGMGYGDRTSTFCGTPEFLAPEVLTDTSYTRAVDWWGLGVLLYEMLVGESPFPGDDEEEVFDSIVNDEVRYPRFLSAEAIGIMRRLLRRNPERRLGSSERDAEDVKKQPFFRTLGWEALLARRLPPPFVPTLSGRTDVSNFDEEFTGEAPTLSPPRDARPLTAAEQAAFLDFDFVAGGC
# assay.notes: radiometric filter-binding kinase assay, Kinase HotSpot
# condition.set: compound 0.5 µM; ATP 10 µM
Catalogue of molecules with associated residual activity

# molecule, residual activity, %
data = [
    ("COc1cc2ncnc(N3CCN(C(=O)Nc4ccc(Oc5ccccc5)cc4)CC3)c2cc1OC", 103),
    ("CCn1cnc2c(Nc3cccc(Cl)c3)nc(N[C@@H]3CCCC[C@@H]3N)nc21", 69.9),
    ("Cn1nc2c3c(cccc31)C(=O)c1ccccc1-2", 101),
    ("Nc1nnc2[nH]c3ccccc3nc1-2", 92),
    ("Cc1nc2cc3nc(-c4cccs4)cnc3cc2n1C", 96.5),
    ("O=C1Nc2ccccc2/C1=C1\\Nc2ccccc2\\C1=N/O", 87.5),
    ("O=C1NC(=O)C(c2cn(CCCO)c3ncccc23)=C1c1cnccn1", 97.8),
    ("Cn1cnc2cc3c(Nc4cccc(Br)c4)ncnc3cc21", 89.1),
    ("CC(C)c1nn(-c2c(Cl)cccc2Cl)c2nc(Cc3ccc(OCCO)cc3)nc(O)c12", 97),
    ("COc1ccc(OC)c2c(=S)c3ccccc3[nH]c12", 109),
    ("CCN(CC)CCCCN1c2ccccc2Oc2ccc(Cl)cc21", 89.6),
    ("O=C(CCCc1ccc(-c2ccccc2F)cc1)Nc1ccc(O)cc1", 105),
    ("CC(=O)O/N=C1\\C(=C2\\C(=O)Nc3cc(Br)ccc32)Nc2ccccc21", 96.1),
    ("COc1cc2ncc(-c3ccccc3)nc2cc1OC", 104),
    ("O=C1Nc2ccccc2/C1=C1/Nc2ccccc2/C1=N\\OCCC(O)CO (configuration not stated)", 49.9),
    ("CC(C)[C@H](CO)Nc1nc(Nc2cc(N)cc(Cl)c2)c2ncn(C(C)C)c2n1", 93.3),
    ("O=C(O)/C=C/c1cc(Br)c(Br)c(Br)c1Br", 85.5),
]

---

# assayed.target: DDR2 (human) (UniProt Q16832)
# Sequence (Q16832 whole entry, looked up): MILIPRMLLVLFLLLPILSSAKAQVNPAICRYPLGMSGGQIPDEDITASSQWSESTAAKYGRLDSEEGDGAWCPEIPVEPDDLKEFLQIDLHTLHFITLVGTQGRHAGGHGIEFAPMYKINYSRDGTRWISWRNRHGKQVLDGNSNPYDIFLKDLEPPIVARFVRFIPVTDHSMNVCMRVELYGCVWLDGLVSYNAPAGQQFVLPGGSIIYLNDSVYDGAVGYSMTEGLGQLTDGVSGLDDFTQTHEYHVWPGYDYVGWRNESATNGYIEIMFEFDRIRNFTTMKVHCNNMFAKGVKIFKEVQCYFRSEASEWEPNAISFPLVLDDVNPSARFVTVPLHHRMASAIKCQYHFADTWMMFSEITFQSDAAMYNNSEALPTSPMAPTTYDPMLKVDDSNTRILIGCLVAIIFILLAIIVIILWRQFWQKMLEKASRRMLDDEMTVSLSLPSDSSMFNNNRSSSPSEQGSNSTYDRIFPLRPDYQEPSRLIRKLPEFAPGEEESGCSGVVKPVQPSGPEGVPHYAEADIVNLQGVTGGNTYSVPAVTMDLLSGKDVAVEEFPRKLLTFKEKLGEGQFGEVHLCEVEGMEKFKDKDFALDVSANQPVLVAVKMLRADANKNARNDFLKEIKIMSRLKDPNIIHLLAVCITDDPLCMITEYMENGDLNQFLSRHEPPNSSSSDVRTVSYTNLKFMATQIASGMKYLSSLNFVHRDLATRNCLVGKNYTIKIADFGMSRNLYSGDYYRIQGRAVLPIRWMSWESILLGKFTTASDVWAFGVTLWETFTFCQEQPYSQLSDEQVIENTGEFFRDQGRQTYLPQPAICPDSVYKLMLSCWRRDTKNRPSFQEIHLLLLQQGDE
# assay.notes: radiometric filter-binding kinase assay, Kinase HotSpot
# condition.set: compound 0.5 µM; ATP 10 µM
// reported residual activity for each item listed
reported.endpoint: residual activity (%)

# molecule, assay.value
measured = [
    ("CN(C)C[C@H]1CCn2c(c(C3=C(c4cn(C)c5ccccc45)C(=O)NC3=O)c3ccccc32)C1", 96),
    ("COc1cc2ncnc(N3CCN(C(=O)Nc4ccc(Oc5ccccc5)cc4)CC3)c2cc1OC", 95.1),
    ("Cn1sc(=O)n(Cc2ccccc2)c1=O", 102),
    ("O=C(O)/C=C/c1cc(Br)c(Br)c(Br)c1Br", 94.3),
    ("O=C(CCCc1ccc(-c2ccccc2F)cc1)Nc1ccc(O)cc1", 98.1),
    ("COc1cc2ncc(-c3ccccc3)nc2cc1OC", 96.9),
    ("CCN(CC)CCCCN1c2ccccc2Oc2ccc(Cl)cc21", 99.4),
    ("COc1ccc(CNC(=O)Nc2ncc([N+](=O)[O-])s2)cc1", 100),
    ("O=C1NC(=O)C(c2cn(CCCO)c3ncccc23)=C1c1cnccn1", 94.6),
    ("O=C1Nc2ccccc2/C1=C1/Nc2ccccc2/C1=N\\OCCC(O)CO (stereo unspecified)", 86.1),
    ("CCn1cnc2c(Nc3cccc(Cl)c3)nc(N[C@@H]3CCCC[C@@H]3N)nc21", 97.2),
]
